# system: T1, hPLD3 luminal domain (Homo sapiens, UniProt Q8IV08 61-490)
# T1 sequence: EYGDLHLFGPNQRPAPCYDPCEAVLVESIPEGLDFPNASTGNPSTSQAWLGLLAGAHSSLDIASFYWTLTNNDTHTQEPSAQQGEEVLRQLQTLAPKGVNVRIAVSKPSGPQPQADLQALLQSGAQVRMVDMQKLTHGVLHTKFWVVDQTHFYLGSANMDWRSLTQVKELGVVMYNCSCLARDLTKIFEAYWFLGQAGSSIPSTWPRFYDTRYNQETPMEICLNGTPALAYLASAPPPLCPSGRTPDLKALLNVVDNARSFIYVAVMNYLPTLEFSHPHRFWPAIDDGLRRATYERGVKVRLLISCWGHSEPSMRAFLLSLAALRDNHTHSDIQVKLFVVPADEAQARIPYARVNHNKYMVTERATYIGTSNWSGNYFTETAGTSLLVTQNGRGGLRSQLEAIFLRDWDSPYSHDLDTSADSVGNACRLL
# protocol_text: ITC; N = 0.9; dH 30 kcal/mol; ITC: 20 mM HEPES pH 7.5, 150 mM NaCl, 10 C; 380 uM ssDNA in syringe, 10 uM hPLD3 in cell. Crystals: 15% PEG 4000, 0.02 M NaI, 0.9 M ammonium sulfate, 15% glycerol
# measurement_context: protein: recombinant; tags: C-terminal 6xHis; chain copies: 2; single strand
pKd: −log10 of the molar value.

{"binder": "TTCATG (ssDNA, phosphorothioate between nt 1 and 2 (mixed Rp/Sp)) [T*TCATG]", "pKd": 4.55}
